target: UniProtKB Q15858; experiment: Blocking effect against sodium ion channel Nav1.7, IonFlux16 auto patch clamp in hNav1.7 HEK293 cells; type: cell-based; details: hNav1.7 HEK293 cells; inhibition of peak current after 50 seconds treatment; eight concentrations; read-out: IC50
Sequence (Q15858 whole entry): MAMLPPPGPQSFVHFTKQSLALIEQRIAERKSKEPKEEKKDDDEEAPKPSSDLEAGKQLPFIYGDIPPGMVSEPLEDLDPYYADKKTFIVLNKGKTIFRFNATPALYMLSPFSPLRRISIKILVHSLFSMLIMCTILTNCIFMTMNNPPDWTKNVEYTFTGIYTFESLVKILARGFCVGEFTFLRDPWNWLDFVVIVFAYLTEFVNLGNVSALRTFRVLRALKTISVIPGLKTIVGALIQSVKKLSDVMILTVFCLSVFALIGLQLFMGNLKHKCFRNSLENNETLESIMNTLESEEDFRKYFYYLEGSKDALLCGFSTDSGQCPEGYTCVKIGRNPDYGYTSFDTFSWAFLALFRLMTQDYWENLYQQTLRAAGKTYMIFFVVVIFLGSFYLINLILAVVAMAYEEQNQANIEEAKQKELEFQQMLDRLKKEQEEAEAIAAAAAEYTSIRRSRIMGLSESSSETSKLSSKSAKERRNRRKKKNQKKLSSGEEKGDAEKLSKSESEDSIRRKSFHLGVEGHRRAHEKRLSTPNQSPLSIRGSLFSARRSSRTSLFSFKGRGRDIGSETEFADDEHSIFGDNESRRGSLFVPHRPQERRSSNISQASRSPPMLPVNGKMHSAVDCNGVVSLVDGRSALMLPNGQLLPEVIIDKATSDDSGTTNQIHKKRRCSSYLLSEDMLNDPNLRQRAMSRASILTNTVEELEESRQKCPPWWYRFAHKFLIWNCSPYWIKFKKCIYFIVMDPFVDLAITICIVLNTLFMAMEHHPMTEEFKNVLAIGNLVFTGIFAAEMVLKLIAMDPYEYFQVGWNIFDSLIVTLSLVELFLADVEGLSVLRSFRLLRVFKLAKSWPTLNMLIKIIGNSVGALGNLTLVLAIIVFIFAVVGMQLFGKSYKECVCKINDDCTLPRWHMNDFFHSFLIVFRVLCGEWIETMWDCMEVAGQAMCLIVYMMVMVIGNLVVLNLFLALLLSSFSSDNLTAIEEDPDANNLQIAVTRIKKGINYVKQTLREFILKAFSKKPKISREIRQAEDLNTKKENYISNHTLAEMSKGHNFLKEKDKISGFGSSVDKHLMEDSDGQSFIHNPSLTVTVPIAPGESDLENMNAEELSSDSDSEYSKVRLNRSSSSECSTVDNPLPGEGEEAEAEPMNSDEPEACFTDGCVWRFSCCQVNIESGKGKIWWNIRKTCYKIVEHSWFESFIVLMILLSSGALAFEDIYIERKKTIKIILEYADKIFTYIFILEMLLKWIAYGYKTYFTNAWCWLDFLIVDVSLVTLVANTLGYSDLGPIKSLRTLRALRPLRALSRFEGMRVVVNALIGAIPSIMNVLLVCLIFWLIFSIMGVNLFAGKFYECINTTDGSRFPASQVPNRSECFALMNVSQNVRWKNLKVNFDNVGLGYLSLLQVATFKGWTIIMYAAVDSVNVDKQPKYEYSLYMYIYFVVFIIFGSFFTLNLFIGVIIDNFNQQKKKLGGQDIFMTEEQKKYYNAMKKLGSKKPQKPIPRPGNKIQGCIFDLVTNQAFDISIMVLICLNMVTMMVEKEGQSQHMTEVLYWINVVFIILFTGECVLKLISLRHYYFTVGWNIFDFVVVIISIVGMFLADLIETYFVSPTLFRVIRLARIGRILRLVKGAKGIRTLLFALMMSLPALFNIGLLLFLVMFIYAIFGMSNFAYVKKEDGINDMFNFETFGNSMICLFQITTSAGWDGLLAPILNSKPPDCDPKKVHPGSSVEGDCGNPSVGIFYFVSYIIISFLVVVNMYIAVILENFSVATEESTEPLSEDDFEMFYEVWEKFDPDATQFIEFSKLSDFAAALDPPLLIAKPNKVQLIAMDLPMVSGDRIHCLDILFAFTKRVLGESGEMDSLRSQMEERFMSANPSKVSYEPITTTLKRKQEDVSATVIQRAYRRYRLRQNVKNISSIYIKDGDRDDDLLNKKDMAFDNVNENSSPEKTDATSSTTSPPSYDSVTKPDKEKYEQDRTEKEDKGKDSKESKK
pIC50: −log10 of the molar value.
readout-type: pIC50

>  <smiles-code>
COc1ccccc1-c1nn(-c2cc(F)c(C(=O)NS(C)(=O)=O)cc2Cl)c2ccc(F)cc12

>  <measurement>
6.70

$$$$
>  <smiles-code>
CS(=O)(=O)NC(=O)c1cc(Cl)c(-n2cc(-c3ccc(Cl)cc3Cl)c3cc(F)cnc32)cc1F

>  <measurement>
7.40

$$$$
>  <smiles-code>
Cc1cc(F)ccc1-c1cn(-c2cc(F)c(C(=O)NS(C)(=O)=O)cc2Cl)c2ncc(Cl)cc12

>  <measurement>
7.05

$$$$
>  <smiles-code>
CS(=O)(=O)NC(=O)c1cc(Cl)c(-n2nc(Cl)c3cc(OCc4ccccc4F)ccc32)cc1F

>  <measurement>
6.80

$$$$
>  <smiles-code>
CS(=O)(=O)NC(=O)c1cc(Cl)c(-n2cc(-c3ccc(C(F)(F)F)cc3)c3cc(F)cnc32)cc1F

>  <measurement>
7.30

$$$$

I: CS(=O)(=O)NC(=O)c1cc(Cl)c(-n2nc(Cl)c3cc(-c4ccc(C#N)cc4)ccc32)cc1F
II: CS(=O)(=O)NC(=O)c1cc(Cl)c(-n2nc(-c3cccc(Cl)c3)c3ccccc32)cc1F
III: COc1ncccc1-c1nn(-c2cc(Cl)c(C(=O)NS(C)(=O)=O)cc2F)c2ccc(Cl)cc12
IV: CS(=O)(=O)NC(=O)c1cc(Cl)c(-n2nc(-c3cccc(C#N)c3)c3cc(F)ccc32)cc1F
V: CS(=O)(=O)NC(=O)c1cc(Cl)c(-n2cc(-c3cccc(Cl)c3F)c3cccnc32)cc1F
Asked: Hey, can you sort those compounds up there by pIC50, smallest first? Write the labels out in the order the request specifies.
Given back: III, I, V, IV, II
(III: 5.52, I: 6.12, V: 6.39, IV: 6.64, II: 7.15)

Origin of measurements: patent US10590078B2
